Where do these numbers come from? They come from ChEMBL document CHEMBL1909592.

# assayed_system: Prostaglandin F2-alpha receptor (Mus musculus)
# protocol_description: Antagonist activity at FP receptor in postpartum mouse myometrial strip assessed as inhibition of PGF-2alpha-induced uterine contractions
# Assay type: functional
Calls of active or inactive are those of the source. No cut-off for these calls is given here.
Returns: one label drawn from active, inactive

Worked examples, 3 molecules total:
NC(=O)NCCC[C@H](NC(=O)[C@H]1CC[C@H]2CC[C@@H](NC(=O)Cc3ccccc3)C(=O)N21)C(=O)N[C@H](CC(=O)O)Cc1ccccc1: inactive
O=C(O)C[C@H](Cc1ccccc1)NC(=O)[C@H](Cc1cccnc1)NC(=O)[C@@H]1CC[C@@H]2CC[C@H](NC(=O)Cc3ccccc3)C(=O)N21: active
C#CCN(NC(=O)Cc1ccccc1)C(=O)N1CCC[C@H]1C(=O)N[C@@H](Cc1cccnc1)C(=O)N[C@H](CC(=O)O)Cc1ccccc1: active

Now, please, on to the next molecule.
Could you check what this test reported for O=C(O)C[C@H](Cc1ccccc1)NC(=O)[C@H](Cc1cccnc1)NC(=O)[C@@H]1CCC[C@@H]2CC[C@H](NC(=O)Cc3ccccc3)C(=O)N21 ?
inactive

====

# assayed_system: UniProtKB P43117
# Sequence (P43117 whole entry): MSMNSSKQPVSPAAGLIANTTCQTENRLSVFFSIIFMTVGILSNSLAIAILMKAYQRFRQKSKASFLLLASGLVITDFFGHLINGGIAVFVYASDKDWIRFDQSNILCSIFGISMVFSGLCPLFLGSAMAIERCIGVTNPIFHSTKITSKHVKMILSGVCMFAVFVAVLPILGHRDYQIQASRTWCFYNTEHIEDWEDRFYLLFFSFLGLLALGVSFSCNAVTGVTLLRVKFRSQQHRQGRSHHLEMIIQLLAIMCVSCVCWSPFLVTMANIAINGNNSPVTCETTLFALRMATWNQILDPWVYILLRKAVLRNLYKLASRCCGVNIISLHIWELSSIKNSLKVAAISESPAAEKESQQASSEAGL
# protocol_description: Antagonist activity at FP receptor in postpartum mouse myometrial strip assessed as inhibition of PGF-2alpha-induced uterine contractions
# Type: functional
Activity calls are given as the source filed them. The calls are words filed in the database; no cut-off is given here. Square brackets hold non-standard residues; d marks the D form. Peptide text beside a SMILES is read from it. * marks the point of attachment. 3Pal = N[C@@H](Cc1cccnc1)C(=O)O; β3hF = N[C@H](CC(=O)O)Cc1ccccc1; PhAc = O=C(Cc1ccccc1)*; azaGly = NNC(=O)O
Returns: one label drawn from Y = active, N = inactive

Worked examples, 5 compounds total:
O=C(O)C[C@H](Cc1ccccc1)NC(=O)[C@H](Cc1cccnc1)NC(=O)[C@@H]1CCCN1C(=O)N(Cc1ccccc1)NC(=O)Cc1ccccc1: Y
O=C(O)C[C@H](Cc1ccccc1)NC(=O)[C@H](Cc1cccnc1)NC(=O)[C@@H]1CCC[C@@H]2C[C@H](NC(=O)Cc3ccccc3)C(=O)N21: N
NC(=O)NCCC[C@@H](NC(=O)[C@H]1CC[C@H]2CC[C@@H](NC(=O)Cc3ccccc3)C(=O)N21)C(=O)N[C@@H](CC(=O)O)Cc1ccccc1: N
C=CCN(NC(=O)Cc1ccccc1)C(=O)N1CCC[C@H]1C(=O)N[C@@H](Cc1cccnc1)C(=O)N[C@H](CC(=O)O)Cc1ccccc1: N
O=C(O)C[C@H](Cc1ccccc1)NC(=O)[C@H](Cc1cccnc1)NC(=O)[C@@H]1CCCN1C(=O)NNC(=O)Cc1ccccc1 (PhAc-[azaGly]P[3Pal][β3hF]-OH): Y

Now, please, on to the next compound.
Could you check what this test reported for CN(NC(=O)Cc1ccccc1)C(=O)N1CCC[C@H]1C(=O)N[C@@H](Cc1cccnc1)C(=O)N[C@H](CC(=O)O)Cc1ccccc1 ?
N

====

Each item that follows carries a reported inhibition.
# assayed_system: Prostaglandin F2-alpha receptor (Homo sapiens)
# protocol_description: Antagonist activity at human FP receptor expressed in HEK293 cells assessed as inhibition of PGF-2alpha-mediated cell ruffling at 1 uM after 30 mins by immunofluorescence assay (reference value: 65.7 +/- 1.6 %)
# Format: functional, cell-based
Square brackets hold non-standard residues; d marks the D form. Peptide text beside a SMILES is read from it. * marks the point of attachment. 3Pal = N[C@@H](Cc1cccnc1)C(=O)O; β3hF = N[C@H](CC(=O)O)Cc1ccccc1; PhAc = O=C(Cc1ccccc1)*; azaGly = NNC(=O)O

O=C(O)C[C@H](Cc1ccccc1)NC(=O)[C@H](Cc1cccnc1)NC(=O)[C@@H]1CCCN1C(=O)N(Cc1ccccc1)NC(=O)Cc1ccccc1: 37.4%
O=C(O)C[C@H](Cc1ccccc1)NC(=O)[C@H](Cc1cccnc1)NC(=O)[C@@H]1CC[C@@H]2CC[C@H](NC(=O)Cc3ccccc3)C(=O)N21: 40.3%
O=C(O)C[C@H](Cc1ccccc1)NC(=O)[C@H](Cc1cccnc1)NC(=O)[C@@H]1CCCN1C(=O)NNC(=O)Cc1ccccc1 (PhAc-[azaGly]P[3Pal][β3hF]-OH): 37.5%

Next, consider the following compound.
Supply measured inhibition of C#CCN(NC(=O)Cc1ccccc1)C(=O)N1CCC[C@H]1C(=O)N[C@@H](Cc1cccnc1)C(=O)N[C@H](CC(=O)O)Cc1ccccc1 in your reply.
56.7%
